| compound | melting point |
| --- | --- |
| Cl.O=c1nc(N2CCCN(CCC3CCCCC3)CC2)sc2c([N+](=O)[O-])cc(C(F)(F)F)cc12 | 274 to 277 °C |
| Cl.O=c1nc(N2CCCN(CC3CCCCC3)CC2)sc2c([N+](=O)[O-])cc(C(F)(F)F)cc12 | 269 to 271 °C |
| Cl.O=c1nc(N2CCCN(CCc3ccccc3)CC2)sc2c([N+](=O)[O-])cc(C(F)(F)F)cc12 (hydrate or solvate) | 264 to 267 °C |
| Cl.O=c1nc(N2CCCN(C3CCCCC3)CC2)sc2c([N+](=O)[O-])cc(C(F)(F)F)cc12 (hydrate or solvate) | 290 to 293 °C |
